Reference source for all entries: patent US20240018252A1

# system: T1, human BCMA (human, UniProt Q02223 1-54)
# T1 construct: also called huBCMA; hBCMA
# T1 sequence: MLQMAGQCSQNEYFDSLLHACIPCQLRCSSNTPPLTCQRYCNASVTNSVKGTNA
# testDetails: SPR, immobilised IgG, 37° C
# maps each entry to its T½
Please give a number only; it is taken to be in min.

INSERT INTO assay_data (binder, value) VALUES
  ('L3.PY/H3.AE (antibody, V domains shown, IgG in the assay) VH: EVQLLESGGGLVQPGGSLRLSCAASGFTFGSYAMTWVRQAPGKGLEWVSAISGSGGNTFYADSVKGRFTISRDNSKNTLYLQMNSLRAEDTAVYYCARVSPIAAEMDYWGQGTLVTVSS VL: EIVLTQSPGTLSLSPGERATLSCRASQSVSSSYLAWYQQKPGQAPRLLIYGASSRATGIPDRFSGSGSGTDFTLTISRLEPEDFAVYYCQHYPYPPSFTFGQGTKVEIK', 8.32);

Here is the next item to consider.
### Prompt Please list T½ recorded for the binder L3.PY/L1.AH/H3.TAQ (antibody, V domains shown, IgG in the assay) VH: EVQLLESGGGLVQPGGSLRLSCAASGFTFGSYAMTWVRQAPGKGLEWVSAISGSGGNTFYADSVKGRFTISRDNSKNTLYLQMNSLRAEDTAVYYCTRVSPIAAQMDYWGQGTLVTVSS VL: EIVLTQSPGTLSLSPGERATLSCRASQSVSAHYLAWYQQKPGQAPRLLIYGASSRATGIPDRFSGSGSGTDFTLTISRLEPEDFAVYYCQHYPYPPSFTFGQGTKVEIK
### Response 9.68
